target: UniProt P32245; experiment: cAMP functional activity assay in HEK-293 cells, normal system; format: cell-based; design: expressed in transfected cells; host or cells: HEK-293; conditions: normal receptor density system; NDP-α-MSH = 1.0
Sequence (P32245 whole entry): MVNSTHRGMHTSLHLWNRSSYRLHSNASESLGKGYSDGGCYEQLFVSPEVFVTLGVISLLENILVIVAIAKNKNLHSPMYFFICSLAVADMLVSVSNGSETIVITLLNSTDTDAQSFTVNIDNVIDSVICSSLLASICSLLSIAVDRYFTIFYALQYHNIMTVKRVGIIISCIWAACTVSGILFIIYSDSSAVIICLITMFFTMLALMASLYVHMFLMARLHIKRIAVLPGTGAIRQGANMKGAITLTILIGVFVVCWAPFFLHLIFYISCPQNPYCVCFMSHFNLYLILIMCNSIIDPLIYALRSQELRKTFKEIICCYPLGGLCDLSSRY
Non-standard residues stand in square brackets, D forms with d. Residues, ends and D or L forms follow the SMILES beside them. *: point of attachment. dPhe(4-Cl) = N[C@H](Cc1ccc(Cl)cc1)C(=O)O; Heptanoyl = CCCCCCC(=O)*; Ahp = NCCCCCCC(=O)O; Bn = c1ccc(C*)cc1
intrinsic activity at MC4-R in a normal system values for the compounds below.
quantity.kind: intrinsic activity at MC4-R in a normal system

# compound, value.reported
data = [
    ("Cc1ccc(C[C@@H](N)C(=O)N2C[C@@H](C)N(CCc3ccc4ccccc4c3)C[C@@H]2CCCNC(=N)N)c(C)c1", 0.2),
    ("NCCCC[C@H]1C(=O)N(CCc2ccc3ccccc3c2)CCN1C(=O)[C@@H](Cc1ccc(Cl)cc1Cl)NC(=O)[C@@H]1CC[C@H](c2ccccc2)N1", 0.2),
    ("CCCCCCC(=O)N[C@H](C(=O)N[C@H](Cc1ccc(Cl)cc1)C(=O)N[C@@H](CCCNC(=N)N)C(=O)N[C@@H](Cc1c[nH]c2ccccc12)C(N)=O)[C@@H](C)OCc1ccccc1 [Example 23] (Heptanoyl-T(Bn)[dPhe(4-Cl)]RW-NH2)", 0.4),
    ("N=C(N)NCCC[C@H](NC(=O)[C@@H](Cc1ccc(Cl)cc1)NC(=O)[C@H](COCc1ccccc1)NC(=O)CCCCCCN)C(=O)N[C@@H](Cc1c[nH]c2ccccc12)C(=O)N[C@@H](CC(=O)O)C(=O)N[C@@H](Cc1ccccc1)C(N)=O [Example 14] (H-[Ahp]S(Bn)[dPhe(4-Cl)]RWDF-NH2)", 0.5),
    ("Cc1cc(Cl)ccc1C[C@@H](N)C(=O)N1C[C@@H](C)N(CCc2ccc3ccccc3c2)C[C@@H]1CCCNC(=N)N", 0.3),
]

====

target: MC5-R (Homo sapiens); assay: Competitive inhibition assay using [I^125]-NDP-α-MSH, hMC5-R membranes; format: binding; parameters: expressed in transfected cells; settings: 1 μM test compound; read-out: Inhibition at 1 μM (NDP-α-MSH) In Normal System, MC5-R
Sequence (P33032 whole entry): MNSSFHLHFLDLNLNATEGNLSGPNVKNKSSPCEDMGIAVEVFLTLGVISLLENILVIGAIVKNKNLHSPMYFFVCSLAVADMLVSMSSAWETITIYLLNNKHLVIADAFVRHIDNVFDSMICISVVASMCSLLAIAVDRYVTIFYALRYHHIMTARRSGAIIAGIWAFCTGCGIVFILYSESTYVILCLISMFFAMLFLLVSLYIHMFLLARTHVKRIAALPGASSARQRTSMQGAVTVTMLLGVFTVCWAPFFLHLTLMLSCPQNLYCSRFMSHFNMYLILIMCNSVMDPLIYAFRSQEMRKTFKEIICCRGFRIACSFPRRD
# inhibition at 1 µM per entry

# molecule, study.system, inhibition at 1 µM / %
measured = [
    ("N=C(N)NCCC[C@H]1C(=O)N2C(CC[C@@H]2COc2ccc3ccccc3c2)N1C(=O)[C@@H](Cc1ccc(Cl)cc1Cl)NC(=O)[C@@H]1CC[C@H](c2ccccc2)N1 (stereo partly drawn)", "MC5-R (Homo sapiens)", 86),
    ("CC(=O)N[C@H](Cc1ccc2ccccc2c1)C(=O)N1C[C@@H](CC(C)C)N(CCc2ccc3ccccc3c2)C[C@@H]1CCCNC(=N)N", "MC5-R (Homo sapiens)", 64),
    ("C[C@@H]1CN(C(=O)[C@H](N)Cc2ccc(Cl)cc2Cl)[C@@H](CCCNC(=N)N)CN1CCc1ccc2ccccc2c1", "MC5-R (Homo sapiens)", 65),
    ("N=C(N)NCCC[C@H]1C(=O)N2C(CC[C@@H]2COc2ccc3ccccc3c2)N1C(=O)[C@@H](Cc1ccc(Cl)cc1Cl)NC(=O)[C@@H]1Cc2ccccc2CN1 (stereo partly drawn)", "MC5-R (Homo sapiens)", 96),
    ("NCCCC[C@H]1C(=O)N(CCc2ccc3ccccc3c2)CCN1C(=O)[C@@H](Cc1ccc(Cl)cc1Cl)NC(=O)c1ccc(Oc2ccccc2)cc1", "MC5-R (Homo sapiens)", 51),
    ("Cc1cc(Cl)ccc1C[C@@H](N)C(=O)N1C[C@@H](C)N(C(=O)Cc2ccc3ccccc3c2)C[C@@H]1CCCNC(=N)N", "MC5-R (Homo sapiens)", 36),
]

====

Each entry below carries its reported inhibition at 1 µM.
biological target: MC5-R (Homo sapiens); assay: Competitive inhibition assay using [I^125]-NDP-α-MSH, hMC5-R membranes; format: binding; set-up: expressed in transfected cells; settings: 1 μM test compound; read-out: Inhibition at 1 μM (NDP-α-MSH) In Normal System, MC5-R
Positions of bridges follow the written chain, without caps; N, C: chain ends. Non-standard residues stand in square brackets, D forms with d. Residues, ends and D or L forms follow the SMILES beside them. *: point of attachment. dPhe(4-Cl) = N[C@H](Cc1ccc(Cl)cc1)C(=O)O; 1Nal = N[C@@H](Cc1cccc2ccccc12)C(=O)O; 2Nal = N[C@@H](Cc1ccc2ccccc2c1)C(=O)O; d2Nal = N[C@H](Cc1ccc2ccccc2c1)C(=O)O; Nle = CCCC[C@H](N)C(=O)O; Ahp = NCCCCCCC(=O)O; Bn = c1ccc(C*)cc1

# compound, inhibition at 1 µM / %
records = [
    ("N=C(N)NCCC[C@H](NC(=O)[C@@H](Cc1ccc(Cl)cc1)NC(=O)[C@H](COCc1ccccc1)NC(=O)CCCCCCN)C(=O)N[C@@H](Cc1c[nH]c2ccccc12)C(=O)N[C@@H](CC(=O)O)C(=O)N[C@@H](Cc1ccccc1)C(N)=O [Example 14] (H-[Ahp]S(Bn)[dPhe(4-Cl)]RWDF-NH2)", 52),
    ("N=C(N)NCCC[C@H](NC(=O)[C@@H](Cc1ccc(Cl)cc1)NC(=O)[C@H](COCc1ccccc1)NC(=O)CCCCCCN)C(=O)N[C@@H](Cc1c[nH]c2ccccc12)C(=O)N[C@@H](CC(=O)O)C(N)=O [Example 13] (H-[Ahp]S(Bn)[dPhe(4-Cl)]RWD-NH2)", 48),
    ("NCCCC[C@H]1C(=O)N(CCc2ccc3ccccc3c2)CCN1C(=O)[C@@H](Cc1ccc(Cl)cc1Cl)NC(=O)[C@@H]1CC[C@H](c2ccccc2)N1", 51),
    ("CCCC[C@H](NC(C)=O)C(=O)N[C@H]1CC(=O)NCCCC[C@@H](C(=O)N(C)C)NC(=O)[C@H](Cc2cccc3ccccc23)NC(=O)[C@H](CCCNC(=N)N)NC(=O)[C@@H](Cc2ccccc2)NC(=O)[C@H](Cc2c[nH]c3ccccc23)NC1=O [Example 36] (Ac-[Nle]DW[dF]R[1Nal]K-NMe2; lactam 2-7)", 92),
    ("CCCC[C@H](NC(C)=O)C(=O)N[C@H]1CC(=O)NCCCC[C@@H](C(=O)O)NC(=O)[C@H](Cc2ccc3ccccc3c2)NC(=O)[C@H](CCCNC(=N)N)NC(=O)[C@@H](Cc2ccc3ccccc3c2)NC(=O)[C@H](Cc2c[nH]cn2)NC1=O [Example 34] (Ac-[Nle]DH[d2Nal]R[2Nal]K-OH; lactam 2-7)", 100),
    ("CCCC[C@H](NC(C)=O)C(=O)N[C@H]1CC(=O)NCCCC[C@@H](C(=O)NCC)NC(=O)[C@H](Cc2cccc3ccccc23)NC(=O)[C@H](CCCNC(=N)N)NC(=O)[C@@H](Cc2ccccc2)NC(=O)[C@H](Cc2c[nH]c3ccccc23)NC1=O [Example 38] (Ac-[Nle]DW[dF]R[1Nal]K-NHEt; lactam 2-7)", 92),
    ("Cc1ccc(C[C@@H](N)C(=O)N2C[C@@H](C)N(CCc3ccc4ccccc4c3)C[C@@H]2CCCNC(=N)N)c(C)c1", 59),
    ("C[C@@H]1CN(C(=O)[C@H](N)Cc2ccc(Cl)cc2)[C@@H](CCCNC(=N)N)CN1CCc1ccc2ccccc2c1", 61),
]

====

experiment: ICV food intake and body weight change; format: in vivo; conditions: rat, 1 nmol, 24 hours
Non-standard residues stand in square brackets, D forms with d. Residues, ends and D or L forms follow the SMILES beside them. *: point of attachment. dPhe(4-Cl) = N[C@H](Cc1ccc(Cl)cc1)C(=O)O; Ahp = NCCCCCCC(=O)O; Bn = c1ccc(C*)cc1
The entries below come with measured decrease in body weight values attached.

# compound, decrease in body weight
data = [
    ("C[C@H](NC(=O)[C@H](Cc1c[nH]c2ccccc12)NC(=O)[C@H](CCCNC(=N)N)NC(=O)[C@@H](Cc1ccc(Cl)cc1)NC(=O)[C@H](COCc1ccccc1)NC(=O)CCCCCCN)C(N)=O [Example 15] (H-[Ahp]S(Bn)[dPhe(4-Cl)]RWA-NH2)", "2%"),
    ("N=C(N)NCCC[C@H]1C(=O)N2C(CC[C@@H]2COc2ccc3ccccc3c2)N1C(=O)[C@@H](Cc1ccc(Cl)cc1Cl)NC(=O)[C@@H]1CC[C@H](c2ccccc2)N1 (some centres unmarked)", "3%"),
]

Reference for the values: patent US20090081197A1
